Field: molecular activity. Provide a value for each of the compounds that follow.
tested.on: recombinant Drosophila melanogaster JHAMT (Drosophila melanogaster, UniProt Q9VJK8, F166Y/S182N)
Construct: to amplify the coding region of the juvenile hormone acid methyltransferase gene from Drosophila melanogaster; made in house
Sequence (Q9VJK8 whole entry F166Y/S182N): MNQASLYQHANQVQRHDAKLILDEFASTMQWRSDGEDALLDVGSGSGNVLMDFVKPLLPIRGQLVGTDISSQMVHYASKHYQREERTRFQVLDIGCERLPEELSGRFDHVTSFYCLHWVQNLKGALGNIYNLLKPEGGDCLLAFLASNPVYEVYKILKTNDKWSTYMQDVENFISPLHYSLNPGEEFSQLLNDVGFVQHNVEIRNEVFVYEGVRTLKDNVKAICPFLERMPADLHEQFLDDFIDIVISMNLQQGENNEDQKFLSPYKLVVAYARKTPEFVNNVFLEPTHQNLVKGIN
procedure.summary: Molecular activity of recombinant Drosophila melanogaster juvenile hormone acid methyltransferase
Format: biochemical
test.parameters: Tris-HCL 50 mM, pH 7.5; 25° C.; 1 mM S-adenosyl methionine and 100 μM of each JH acid; mean±standard deviation, n=3
Procedure: A reverse phase column (CAPCELL PAK C18 UG80 S-5, 3×150 mm, Shiseido) was attached to an HPLC apparatus (JASCO), and juvenile hormones were detected by measuring absorbance at 217 nm using an ultraviolet detector. Samples were flowed at a rate of 0.5 ml/min, at a column retention temperature of 40° C., for 20 minutes, in 60% acetonitrile or 80% acetonitrile. […]

[in] Supply molecular activity value. Item: CC/C(=C\CC/C(C)=C/C(=O)O)CCC1OC1(C)CC (stereo not shown)
[out] 2.67±0.44

[in] Supply recorded molecular activity for `CC[C@]1(C)O[C@@H]1CC/C(C)=C/CC/C(C)=C/C(=O)O` here.
[out] 2.07±0.26

[in] Check the records and state molecular activity for `CC(C)=CCCC(C)=CCCC(C)=CC(=O)O`
[out] 2.3±0.51

[in] Check the records and state molecular activity for C/C(=C\C(=O)O)CC/C=C(\C)CCC1OC1(C)C (stereo not shown)
[out] 1.76±0.13
